# assayedSystem: JAK1 (h) (Homo sapiens (Human), UniProt P23458)
# Sequence (P23458 whole entry): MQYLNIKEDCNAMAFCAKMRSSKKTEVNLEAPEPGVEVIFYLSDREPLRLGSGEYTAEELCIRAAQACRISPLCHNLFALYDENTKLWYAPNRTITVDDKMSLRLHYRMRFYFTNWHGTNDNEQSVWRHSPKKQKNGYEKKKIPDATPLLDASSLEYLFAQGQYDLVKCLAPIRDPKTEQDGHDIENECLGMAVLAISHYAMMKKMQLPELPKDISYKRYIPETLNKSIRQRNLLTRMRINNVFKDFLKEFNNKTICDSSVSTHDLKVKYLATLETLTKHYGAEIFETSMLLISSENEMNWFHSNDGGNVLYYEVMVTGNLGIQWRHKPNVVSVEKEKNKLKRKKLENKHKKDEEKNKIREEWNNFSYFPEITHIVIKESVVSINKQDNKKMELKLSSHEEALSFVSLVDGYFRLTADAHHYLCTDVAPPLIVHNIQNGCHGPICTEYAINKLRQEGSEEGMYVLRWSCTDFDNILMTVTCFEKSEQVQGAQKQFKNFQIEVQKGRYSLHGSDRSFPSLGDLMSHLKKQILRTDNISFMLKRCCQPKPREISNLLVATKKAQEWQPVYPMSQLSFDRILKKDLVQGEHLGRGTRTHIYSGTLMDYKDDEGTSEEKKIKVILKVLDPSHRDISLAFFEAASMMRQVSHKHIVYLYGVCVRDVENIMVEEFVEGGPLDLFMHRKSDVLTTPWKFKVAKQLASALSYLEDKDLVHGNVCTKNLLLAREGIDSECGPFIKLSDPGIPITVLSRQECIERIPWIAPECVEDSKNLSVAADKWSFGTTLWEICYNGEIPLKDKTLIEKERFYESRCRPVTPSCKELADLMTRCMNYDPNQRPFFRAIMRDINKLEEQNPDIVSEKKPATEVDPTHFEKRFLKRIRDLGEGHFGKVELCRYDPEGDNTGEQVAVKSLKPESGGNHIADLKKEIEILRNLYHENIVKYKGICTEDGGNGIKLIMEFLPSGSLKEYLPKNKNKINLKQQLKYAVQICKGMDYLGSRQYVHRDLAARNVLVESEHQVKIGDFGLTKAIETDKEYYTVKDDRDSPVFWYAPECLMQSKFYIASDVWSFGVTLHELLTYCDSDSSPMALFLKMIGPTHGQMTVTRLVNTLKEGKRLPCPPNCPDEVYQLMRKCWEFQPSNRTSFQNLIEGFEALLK
# protocol: Kinase selectivity panel: JAK1 (h)
# Format: biochemical
# conditionSet: 10 μM in duplicate, read-out: % inhibition of control values
endpointLabel: inhibition at 10 µM (%)
Numbers only, in %.

Below, 3 molecules whose answers are already recorded.
Challenge: Provide inhibition at 10 µM, system JAK1 (h) (Homo sapiens (Human), UniProt P23458), entry "COCCN1CCC(CNC(=O)c2n[nH]c3ccc(OC)cc23)CC1"
Response given: 0

Challenge: Provide the reported inhibition at 10 µM (system: JAK1 (h) (Homo sapiens (Human), UniProt P23458)) for "COc1ccc2[nH]nc(C(=O)NCC3CCN(CCC(=O)O)CC3)c2c1"
Response given: 4

Challenge: Write down measured inhibition at 10 µM (JAK1 (h) (Homo sapiens (Human), UniProt P23458)) for this molecule. "COCCN1CCC(CNC(=O)c2n[nH]c3ccc(-c4cccc(F)c4F)cc23)CC1"
Response given: 7

Kindly review the next molecule as well.
Challenge: Provide inhibition at 10 µM, recorded with JAK1 (h) (Homo sapiens (Human), UniProt P23458), of "COc1ccc2[nH]nc(C(=O)NCC3CCN(CC(=O)O)CC3)c2c1"
Response given: 0
